System: Nucleic Acid
Experiment: Binding constant towards GC-rich calf thymus DNA hairpin
Assay type: nucleic-acid assay
Conditions: Bos taurus
Task for the reader: assign each of the following compounds its reported K.
Number in M⁻¹, nothing else.

The value of K recorded for `COCCOCCOCCOCCCNCCC(=O)Nc1ccc2c(c1)C(=O)c1ccc(NC(=O)CCNCCCOCCOCCOCCOC)cc1C2=O` when tested on Nucleic Acid reads 90000

The value of K recorded for `COCCOCCCNCCC(=O)Nc1ccc2c(c1)C(=O)c1ccc(NC(=O)CCNCCCOCCOC)cc1C2=O` when tested on Nucleic Acid reads 220000

The value of K recorded for `COCCCNCCC(=O)Nc1ccc2c(c1)C(=O)c1ccc(NC(=O)CCNCCCOC)cc1C2=O` when tested on Nucleic Acid reads 310000

The value of K recorded for `COCCOCCOCCCNCCC(=O)Nc1ccc2c(c1)C(=O)c1ccc(NC(=O)CCNCCCOCCOCCOC)cc1C2=O` when tested on Nucleic Acid reads 110000
